Reference source: patent US6472526B1

Recorded IC50 values for a group of compounds are listed next.
target: Ras farnesyl transferase (Rattus norvegicus, UniProt Q02293+Q04631); construct: endogenous in cells; host or cells: Rat2 fibroblasts transformed with H-Ras or with an H-Ras/K-Ras C-terminus fusion; test: In vivo (cellular) inhibitory activity for Ras farnesyl transferase, Rat2 cell line transformed with fused protein of H-Ras substituted with polybasic lysine domain at C-terminus of K-Ras; type: cell-based; conditions: Rat2 cell line transformed with H-Ras fused with polybasic lysine domain of K-Ras C-terminus; concentration inhibiting 50% of farnesyl bonding; read-out: K-Ras CIC50

Here's what some known entries look like.
O=C(c1cn(Cc2c[nH]cn2)cc1-c1ccc2c3c(cccc13)CC2)N1CCOCC1 ... 10 to 100 µM
CN1CCN(C(=O)c2cn(Cc3cncn3Cc3ccccc3F)cc2-c2cccc3ccccc23)CC1 ... 10 to 50 µM
CSCCOc1ccc(C(=O)c2cn(Cc3c[nH]cn3)cc2-c2cccc3ccccc23)cc1 ... 10 to 100 µM
COCCN(C)C(=O)c1cn(Cc2cncn2CC2CCCCC2)cc1-c1cccc2ccccc12 ... < 50 µM
Cc1ccc(C(=O)c2cn(Cc3c[nH]cn3)cc2-c2cn(C)c3ccccc23)cc1 ... 10 to 100 µM

// field: IC50; key: COCCN(C)C(=O)c1cn(Cc2cncn2Cc2ccc(C#N)cc2)nc1-c1cccc2ccccc12 ; value = 40 µM

// field: IC50; key: CN1CCN(C(=O)c2cn(Cc3cncn3Cc3cccc(Cl)c3)cc2-c2cccc3ccccc23)CC1 ; value = 10 to 50 µM

// field: IC50; key: CCOC(=O)c1nc(Cc2cnc[nH]2)oc1-c1cccc2ccccc12 ; value = > 50 µM

###

target: Ras farnesyl transferase (Rattus norvegicus, UniProt Q02293+Q04631); construct: endogenous in cells; host or cells: Rat2 fibroblasts transformed with H-Ras or with an H-Ras/K-Ras C-terminus fusion; assay: In vivo (cellular) inhibitory activity for Ras farnesyl transferase, Rat2 cell line which expresses C-Harvey-Ras protein; format: cell-based; conditions: Rat2 cell line expressing C-Harvey-Ras; concentration inhibiting 50% of farnesyl bonding of Ras protein; read-out: H-Ras CIC50
Recorded IC50 values for a group of compounds are listed next.
Your answer is read as µM, so omit the unit and give the number.

O=C(c1cn(Cc2c[nH]cn2)cc1-c1cccc2ccccc12)N1CCOCC1 ... 4

Now consider the entry below.
Log: Ras farnesyl transferase (Rattus norvegicus, UniProt Q02293+Q04631), compound COCCN(C)C(=O)c1cn(Cc2cncn2CCc2ccccc2F)cc1-c1cccc2ccccc12 , IC50 = 0.021

###

biological target: Ras farnesyl transferase (Rattus norvegicus, UniProt Q02293+Q04631); construct: endogenous in cells; host or cells: Rat2 fibroblasts transformed with H-Ras or with an H-Ras/K-Ras C-terminus fusion; assay: In vivo (cellular) inhibitory activity for Ras farnesyl transferase, Rat2 cell line transformed with fused protein of H-Ras substituted with polybasic lysine domain at C-terminus of K-Ras; type: cell-based; settings: Rat2 cell line transformed with H-Ras fused with polybasic lysine domain of K-Ras C-terminus; concentration inhibiting 50% of farnesyl bonding; read-out: K-Ras CIC50
pIC50: −log10 of the molar value.
experimentalEndpoint: pIC50

COCCN(C)C(=O)c1cn(Cc2cncn2CCc2ccc(OC)cc2)cc1-c1cccc2ccccc12 ... 4.30 to 5.00
CN1CCN(C(=O)c2cn(Cc3cncn3Cc3ccc(F)cc3)cc2-c2cccc3ccccc23)CC1 ... 5.30
CCCCc1c(-c2cccc3ccccc23)c(C(=O)c2ccc(Cl)cc2Cl)cn1Cc1c[nH]cn1 ... 4.00 to 5.00
CCOC(=O)c1nc(Cc2cnc[nH]2)sc1-c1cccc2ccccc12 ... < 4.30

// field: pIC50; key: Cc1ccc(Cn2cncc2Cn2cc(C(=O)N3CCN(C)CC3)c(-c3cccc4ccccc34)c2)cc1 ; value = 4.30 to 5.00

// field: pIC50; key: COc1ccccc1CCn1cncc1Cn1cc(C(=O)N2CCN(C)CC2)c(-c2cccc3ccccc23)c1 ; value = 4.30 to 5.00

// field: pIC50; key: Cc1cccc(Cn2cncc2Cn2cc(C(=O)N3CCN(C)CC3)c(-c3cccc4ccccc34)c2)c1 ; value = 4.30 to 5.00

// field: pIC50; key: O=C(c1cn(CCn2ccnc2)cc1-c1cccc2ccccc12)N1CCOCC1 ; value = 4.00 to 5.00

###

target: Ras farnesyl transferase (Rattus norvegicus, UniProt Q02293+Q04631); construct: endogenous in cells; host or cells: Rat2 fibroblasts transformed with H-Ras or with an H-Ras/K-Ras C-terminus fusion; experiment: In vivo (cellular) inhibitory activity for Ras farnesyl transferase, Rat2 cell line which expresses C-Harvey-Ras protein; assay type: cell-based; details: Rat2 cell line expressing C-Harvey-Ras; concentration inhibiting 50% of farnesyl bonding of Ras protein; read-out: H-Ras CIC50
experimentalEndpoint: pIC50
Note on units: pIC50 is unitless, being -log10 of a concentration expressed in mol/L.

COCCN(C)C(=O)c1cn(Cc2cncn2CCc2ccc(Br)cc2)cc1-c1cccc2ccccc12 ... 7.74

Now consider the entry below.
// field: pIC50; key: CC(c1ccccc1)n1cncc1Cn1cc(C(=O)N2CCOCC2)c(-c2cccc3ccccc23)c1 (stereo in doubt) ; value = 7.60

###

Recorded IC50 values for a group of compounds are listed next.
target: Ras farnesyl transferase (Rattus norvegicus, UniProt Q02293+Q04631); construct: endogenous in cells; host or cells: Rat2 fibroblasts transformed with H-Ras or with an H-Ras/K-Ras C-terminus fusion; experiment: In vivo (cellular) inhibitory activity for Ras farnesyl transferase, Rat2 cell line transformed with fused protein of H-Ras substituted with polybasic lysine domain at C-terminus of K-Ras; type: cell-based; conditions: Rat2 cell line transformed with H-Ras fused with polybasic lysine domain of K-Ras C-terminus; concentration inhibiting 50% of farnesyl bonding; read-out: K-Ras CIC50

CN(C)CCN(C)C(=O)c1cn(Cc2cncn2Cc2ccc3c(c2)OCO3)cc1-c1cccc2ccccc12 ... 10 to 100 µM
Cn1cncc1Cn1cc(C(=O)N2CCOCC2)c(-c2cccc3ccccc23)c1 ... > 50 µM
CN1CCN(C(=O)c2cn(Cc3cncn3CCc3ccc(Br)cc3)cc2-c2cccc3ccccc23)CC1 ... 10 to 50 µM
COCCN(C)C(=O)c1cn(Cc2cncn2CCc2ccc(Cl)cc2)cc1-c1cccc2ccccc12 ... 10 to 50 µM
Cn1cnc(Cn2cc(C(=O)c3ccc(Oc4ccccc4)cc3)c(-c3cccc4ccccc34)c2)c1 ... > 50 µM
COCCN(C)C(=O)c1cn(Cc2cncn2Cc2cccc3ccccc23)cc1-c1cccc2ccccc12 ... 10 to 50 µM
CC(c1ccccc1)n1cncc1Cn1cc(C(=O)N2CCOCC2)c(-c2cccc3ccccc23)c1 (stereo in doubt) ... 10 to 50 µM
COCCN(C)C(=O)c1cn(Cc2cncn2CCc2ccccc2)cc1-c1cccc2ccccc12 ... 10 to 50 µM
COCCN(C)C(=O)c1cn(Cc2cncn2CCc2ccccc2F)cc1-c1cccc2ccccc12 ... 10 to 50 µM
COCCN(C)C(=O)c1cn(Cc2cncn2CCc2ccccc2OC)cc1-c1cccc2ccccc12 ... 10 to 50 µM

Now consider the entry below.
// field: IC50; key: O=C(c1cn(Cc2c[nH]cn2)cc1-c1ccnc2ccccc12)N1CCOCC1 ; value = 10 to 100 µM

###

biological target: Ras farnesyl transferase (Rattus norvegicus, UniProt Q02293+Q04631); construct: endogenous in cells; host or cells: Rat2 fibroblasts transformed with H-Ras or with an H-Ras/K-Ras C-terminus fusion; assay: In vivo (cellular) inhibitory activity for Ras farnesyl transferase, Rat2 cell line which expresses C-Harvey-Ras protein; format: cell-based; settings: Rat2 cell line expressing C-Harvey-Ras; concentration inhibiting 50% of farnesyl bonding of Ras protein; read-out: H-Ras CIC50
experimentalEndpoint: pIC50
Note on units: pIC50 is unitless, being -log10 of a concentration expressed in mol/L.

// field: pIC50; key: CN1CCN(C(=O)c2cn(Cc3cncn3Cc3cccc4ccccc34)cc2-c2cccc3ccccc23)CC1 [Compound 7] ; value = 7.60

// field: pIC50; key: O=C(c1ccc(Br)cc1)c1cn(Cc2c[nH]cn2)cc1-c1cccc2ccccc12 [Compound 49] ; value = 6.15

// field: pIC50; key: COCCN(C)C(=O)c1nc(Cc2cncn2Cc2ccc(Cl)cc2)sc1-c1cccc2ccccc12 [Compound 147] ; value = 7.30

// field: pIC50; key: COCCN(C)C(=O)c1cn(Cc2cncn2CCc2cccc(Cl)c2)cc1-c1cccc2ccccc12 [Compound 25] ; value = 7.82

// field: pIC50; key: COCCN(C)C(=O)c1cn(Cc2cncn2CCc2ccc(OC)cc2)cc1-c1cccc2ccccc12 [Compound 19] ; value = 7.70
